Tested on: SK-MEL-2
Assay: NCI-60 SRB screen
Assay type: cell-based
Details: Homo sapiens; SK-MEL-2, 10^–5 Molar; read-out: Percent growth inhibition
// label = label 1 if inhibition at 10 µM is not less than 2%, otherwise label 0

Query: Item CCn1cc(C(=O)O)c(=O)c2cc(F)c(N3CCN(C(=O)c4ccccc4)C(C)C3)c(F)c21 (centres unmarked) [Compound 7a] with inhibition at 10 µM of 2% or above?
Response: label 0

Query: Note, next up: CCn1cc(C(=O)NN=Cc2cccnc2)c(=O)c2cc(F)c(N3CCNC(C)C3)c(F)c21 (centres unmarked) [Compound 3d]
Response: label 1

Query: Note, next up: CCn1cc(C(=O)O)c(=O)c2cc(F)c(N3CCN(CC(=O)Nc4ccc(S(N)(=O)=O)cc4)C(C)C3)c(F)c21 (centres unmarked) [Compound 5d]
Response: label 1

Query: Note, next up: CCn1cc(C(=O)NN=Cc2ccc(Br)cc2)c(=O)c2cc(F)c(N3CCNC(C)C3)c(F)c21 (centres unmarked) [Compound 3c]
Response: label 1

Query: Note, next up: CCn1cc(C(=O)NN=Cc2ccccc2)c(=O)c2cc(F)c(N3CCNC(C)C3)c(F)c21 (centres unmarked) [Compound 3a]
Response: label 1

###

System: MDA-MB-468
Test: NCI-60 SRB screen
Type: cell-based
Conditions: Homo sapiens; MDA-MB-468, 10^–5 Molar; read-out: Percent growth inhibition
valueType: inhibition at 10 µM (%)
// return numeric value only (unit: %, not printed)

- molecule: "CCn1cc(C(=O)O)c(=O)c2cc(F)c(N3CCN(C(=O)c4ccc(Br)cc4)C(C)C3)c(F)c21 (stereo not shown)"
  valueType: "inhibition at 10 µM"
  valueObserved: 3.31
- molecule: "CCn1cc(C(=O)O)c(=O)c2cc(F)c(N3CCN(C(=O)c4ccc([N+](=O)[O-])cc4)C(C)C3)c(F)c21 (stereo not shown)"
  valueType: "inhibition at 10 µM"
  valueObserved: 2.79
- molecule: "CCn1cc(C(=O)O)c(=O)c2cc(F)c(N3CCN(CC(=O)Nc4ccccc4)C(C)C3)c(F)c21 (stereo not shown)"
  valueType: "inhibition at 10 µM"
  valueObserved: 7.38

Query: What measured inhibition at 10 µM goes with CCn1cc(C(=O)O)c(=O)c2cc(F)c(N3CCN(CC(=O)Nc4ccc(OC)cc4)C(C)C3)c(F)c21 (stereo not shown) ?
Response: 3.75

###

valueType: melting point

- molecule: "CCn1cc(C(=O)O)c(=O)c2cc(F)c(N3CCN(C(=O)c4ccccc4)C(C)C3)c(F)c21 (stereo not drawn)"
  valueObserved: "290 to 292 °C"
- molecule: "CCn1cc(C(=O)O)c(=O)c2cc(F)c(N3CCN(C(=O)c4ccc(Br)cc4)C(C)C3)c(F)c21 (stereo not drawn)"
  valueObserved: "271 to 273 °C"
- molecule: "CCn1cc(C(=O)O)c(=O)c2cc(F)c(N3CCN(CC(=O)Nc4ccc(OC)cc4)C(C)C3)c(F)c21 (stereo not drawn)"
  valueObserved: "196 to 198 °C"
- molecule: "CCn1cc(C(=O)O)c(=O)c2cc(F)c(N3CCN(CC(=O)Nc4ccc(S(=O)(=O)Nc5nccc(C)n5)cc4)C(C)C3)c(F)c21 (stereo not drawn)"
  valueObserved: "247 to 249 °C"
- molecule: "CCn1cc(C(=O)O)c(=O)c2cc(F)c(N3CCN(CC(=O)Nc4ccccc4)C(C)C3)c(F)c21 (stereo not drawn)"
  valueObserved: "248 to 250 °C"
- molecule: "CCn1cc(C(=O)O)c(=O)c2cc(F)c(N3CCN(CC(=O)Nc4ccc(S(=O)(=O)Nc5ncccn5)cc4)C(C)C3)c(F)c21 (stereo not drawn)"
  valueObserved: "282 to 284 °C"

Query: What measured melting point goes with CCn1cc(C(=O)O)c(=O)c2cc(F)c(N3CCN(C(=O)c4ccc([N+](=O)[O-])cc4)C(C)C3)c(F)c21 (stereo not drawn) ?
Response: 215 to 217 °C

Query: Note, next up: CCn1cc(C(=O)O)c(=O)c2cc(F)c(N3CCN(CC(=O)Nc4ccc(Cl)cc4)C(C)C3)c(F)c21 (stereo not drawn)
Response: 218 to 220 °C

###

System: EKVX
Experiment: NCI-60 SRB screen
Assay type: cell-based
Conditions: Homo sapiens, 10^–5 Molar, read-out: Percent growth inhibition
Recorded inhibition at 10 µM, one value per entry.
// return numeric value only (unit: %, not printed)

- molecule: "CCn1cc(C(=O)NN=Cc2ccc(Br)cc2)c(=O)c2cc(F)c(N3CCNC(C)C3)c(F)c21 (stereo not shown)"
  valueType: "inhibition at 10 µM"
  resultUnits: "%"
  valueObserved: 13.1
- molecule: "CCn1cc(C(=O)NN=Cc2ccccc2)c(=O)c2cc(F)c(N3CCNC(C)C3)c(F)c21 (stereo not shown)"
  valueType: "inhibition at 10 µM"
  resultUnits: "%"
  valueObserved: 65.7
- molecule: "CCn1cc(C(=O)O)c(=O)c2cc(F)c(N3CCN(CC(=O)Nc4ccc(Cl)cc4)C(C)C3)c(F)c21 (stereo not shown)"
  valueType: "inhibition at 10 µM"
  resultUnits: "%"
  valueObserved: 3.04
- molecule: "CCn1cc(C(=O)O)c(=O)c2cc(F)c(N3CCN(C(=O)c4ccccc4)C(C)C3)c(F)c21 (stereo not shown)"
  valueType: "inhibition at 10 µM"
  resultUnits: "%"
  valueObserved: 1.21
- molecule: "CCn1cc(C(=O)NN=Cc2cccc(F)c2)c(=O)c2cc(F)c(N3CCNC(C)C3)c(F)c21 (stereo not shown)"
  valueType: "inhibition at 10 µM"
  resultUnits: "%"
  valueObserved: 49.2
- molecule: "CCn1cc(C(=O)NN=Cc2cccs2)c(=O)c2cc(F)c(N3CCNC(C)C3)c(F)c21 (stereo not shown)"
  valueType: "inhibition at 10 µM"
  resultUnits: "%"
  valueObserved: 65.9

Query: What measured inhibition at 10 µM goes with CCn1cc(C(=O)NN=Cc2cccnc2)c(=O)c2cc(F)c(N3CCNC(C)C3)c(F)c21 (stereo not shown) ?
Response: 37.2

###

System: 786-0
Assay: NCI-60 SRB screen
Type: cell-based
Conditions: Homo sapiens; 786-0, 10^–5 Molar; read-out: Percent growth inhibition
// label = criterion met if inhibition at 10 µM is not less than 7%, otherwise criterion not met

- compound: "CCn1cc(C(=O)O)c(=O)c2cc(F)c(N3CCN(C(=O)c4ccccc4)C(C)C3)c(F)c21 (centres unmarked)"
  classification: "criterion met"
- compound: "CCn1cc(C(=O)NN=Cc2ccc(Br)cc2)c(=O)c2cc(F)c(N3CCNC(C)C3)c(F)c21 (centres unmarked)"
  classification: "criterion met"
- compound: "CCn1cc(C(=O)NN=Cc2cccs2)c(=O)c2cc(F)c(N3CCNC(C)C3)c(F)c21 (centres unmarked)"
  classification: "criterion met"
- compound: "CCn1cc(C(=O)O)c(=O)c2cc(F)c(N3CCN(C(=O)c4ccc([N+](=O)[O-])cc4)C(C)C3)c(F)c21 (centres unmarked)"
  classification: "criterion not met"
- compound: "CCn1cc(C(=O)NN=Cc2ccccc2)c(=O)c2cc(F)c(N3CCNC(C)C3)c(F)c21 (centres unmarked)"
  classification: "criterion met"

Query: Item CCn1cc(C(=O)NN=Cc2cccc(F)c2)c(=O)c2cc(F)c(N3CCNC(C)C3)c(F)c21 (centres unmarked) with inhibition at 10 µM of 7% or above?
Response: criterion met

###

Tested on: MDA-MB-468
Experiment: NCI-60 SRB screen
Format: cell-based
Settings: Homo sapiens; MDA-MB-468, 10^–5 Molar; read-out: Percent growth inhibition
Classes are defined on inhibition at 10 µM with ranges low bin: < 5%; mid bin: ≥ 5% and < 30%; high bin: ≥ 30%

- molecule: "CCn1cc(C(=O)O)c(=O)c2cc(F)c(N3CCN(C=O)C(C)C3)c(F)c21 (stereo not shown) [Compound 6]"
  classification: "low bin"
- molecule: "CCn1cc(C(=O)O)c(=O)c2cc(F)c(N3CCN(CC(=O)Nc4ccc(S(=O)(=O)Nc5nccc(C)n5)cc4)C(C)C3)c(F)c21 (stereo not shown) [Compound 5f]"
  classification: "low bin"
- molecule: "CCn1cc(C(=O)NN=Cc2cccnc2)c(=O)c2cc(F)c(N3CCNC(C)C3)c(F)c21 (stereo not shown) [Compound 3d]"
  classification: "high bin"
- molecule: "CCn1cc(C(=O)NN=Cc2cccs2)c(=O)c2cc(F)c(N3CCNC(C)C3)c(F)c21 (stereo not shown) [Compound 3e]"
  classification: "high bin"

Query: Please classify: CCn1cc(C(=O)NN=Cc2cccc(F)c2)c(=O)c2cc(F)c(N3CCNC(C)C3)c(F)c21 (stereo not shown) [Compound 3b]
Response: mid bin

Query: Note, next up: CCn1cc(C(=O)O)c(=O)c2cc(F)c(N3CCN(CC(=O)Nc4ccc(Cl)cc4)C(C)C3)c(F)c21 (stereo not shown) [Compound 5b]
Response: mid bin

Query: Note, next up: CCn1cc(C(=O)NN=Cc2ccccc2)c(=O)c2cc(F)c(N3CCNC(C)C3)c(F)c21 (stereo not shown) [Compound 3a]
Response: high bin

Query: Note, next up: CCn1cc(C(=O)O)c(=O)c2cc(F)c(N3CCN(C(=O)c4ccc(Cl)cc4)C(C)C3)c(F)c21 (stereo not shown) [Compound 7c]
Response: low bin

Query: Note, next up: CCn1cc(C(=O)NN=Cc2ccc(Br)cc2)c(=O)c2cc(F)c(N3CCNC(C)C3)c(F)c21 (stereo not shown) [Compound 3c]
Response: mid bin

Query: Note, next up: CCn1cc(C(=O)O)c(=O)c2cc(F)c(N3CCN(C(=O)c4ccccc4)C(C)C3)c(F)c21 (stereo not shown) [Compound 7a]
Response: low bin
